These measurements were taken from the kinase profiling compilation of Christmann-Franck et al. (2016).

# Measurement Target: PLK3 (human) (UniProt Q9H4B4)
# Sequence (Q9H4B4 whole entry, looked up): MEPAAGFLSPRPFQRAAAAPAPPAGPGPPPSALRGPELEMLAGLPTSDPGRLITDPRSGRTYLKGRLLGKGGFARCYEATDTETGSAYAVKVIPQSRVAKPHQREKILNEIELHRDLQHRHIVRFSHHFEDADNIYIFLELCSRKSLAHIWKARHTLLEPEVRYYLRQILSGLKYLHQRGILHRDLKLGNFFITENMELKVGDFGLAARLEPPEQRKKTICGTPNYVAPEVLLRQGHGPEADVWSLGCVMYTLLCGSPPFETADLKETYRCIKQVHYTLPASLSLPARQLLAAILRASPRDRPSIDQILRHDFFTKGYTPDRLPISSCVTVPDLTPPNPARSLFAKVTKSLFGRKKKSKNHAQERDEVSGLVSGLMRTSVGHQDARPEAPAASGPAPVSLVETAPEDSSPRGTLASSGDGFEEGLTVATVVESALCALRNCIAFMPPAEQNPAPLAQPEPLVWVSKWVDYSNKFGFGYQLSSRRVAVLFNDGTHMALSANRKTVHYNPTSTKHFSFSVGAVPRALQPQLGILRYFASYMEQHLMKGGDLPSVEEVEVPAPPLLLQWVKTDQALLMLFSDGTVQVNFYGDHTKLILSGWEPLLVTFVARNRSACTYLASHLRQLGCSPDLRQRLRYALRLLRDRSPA
# Assay Summary: radiometric filter-binding kinase assay, Kinase HotSpot
# Applied Conditions: compound 0.5 µM; ATP 10 µM
Value Type: residual activity (%)
# number only, unit % dropped from output

Quick check: residual activity of O=C1C(Cl)=C(N2C(=O)CCC2=O)C(=O)c2ccccc21 ?
96.6

Okay, and COc1ccc(S(=O)(=O)N(CCO)c2ccccc2CN(C)C/C=C/c2ccc(Cl)cc2)cc1 ?
99.4

How about O=C1c2ccccc2-c2nc3nnnn3nc21 ?
28.5

One more compound: CS(=O)(=O)CCNCc1ccc(-c2ccc3ncnc(Nc4ccc(OCc5cccc(F)c5)c(Cl)c4)c3c2)o1
105

Again, but for Cc1cncc2cccc(S(=O)(=O)N3CCCN(C(=O)CN)C[C@H]3C)c12
98.4

Further, for CN(C)CCCn1cc(C2=C(c3c[nH]c4ccccc34)C(=O)NC2=O)c2ccccc21 ?
94.9

Likewise for COc1ccc2c(c1)/C(=C/c1cnc[nH]1)C(O)=N2 ?
93

Check NC(=O)c1cccc(-c2cc(Nc3ccc(OC(F)(F)F)cc3)ncn2)c1 too.
96.9

How about this compound: CN(C)S(=O)(=O)c1ccc2c(c1)/C(=C/c1cc3c([nH]1)CCCC3)C(=O)N2
94.5

Also need O=C(c1cc2cc(O)ccc2[nH]1)c1cc2cc(O)ccc2[nH]1 , thanks.
101
